# maps each entry to its resistance index (RI)
system: CQ-resistant Pf Dd2 strain; experiment: In vitro antiplasmodial activity, SYBR green I fluorescence, Dd2 strain; assay type: cell-based, Plasmodium falciparum; settings: RI = Dd2 EC50/3D7 EC50

[[record]]
sample_smiles = "CN(C)CCNc1cc(/C=C/c2ccncc2)nc2ccc(Cl)cc12"
measurement_target = "CQ-resistant Pf Dd2 strain"
property_name = "resistance index (RI)"
value_observed = "< 1"


Exercise: Quick one: resistance index (RI) for COc1ccc2nc(/C=C/c3cc(OC)c(OC)c(OC)c3)cc(NCCN(C)C)c2c1 ?
Key: ≥ 1.5

Exercise: Name the reported resistance index (RI) value associated with the molecule COc1ccc2nc(/C=C/c3ccc(OC)c(OC)c3)cc(NCCN(C)C)c2c1
Key: ≥ 1.5

Exercise: Request the reported resistance index (RI) associated with COc1ccc2nc(/C=C/c3ccccc3)cc(NCCN(C)C)c2c1
Key: ≥ 1.5

Exercise: // query resistance index (RI) value for entry CN(C)CCNc1cc(/C=C/c2ccc(N(C)C)cc2)nc2ccc(Cl)cc12
Key: 1.3
